molecular target: Apelin receptor (Homo sapiens, UniProt P35414); assay: Activity at human APJ receptor expressed in HEK293 cells assessed as dissociation of Galphai1 from Gbetagamma subunit after 5 mins by BRET assay; assay type: cell-based
Sequence (P35414 whole entry): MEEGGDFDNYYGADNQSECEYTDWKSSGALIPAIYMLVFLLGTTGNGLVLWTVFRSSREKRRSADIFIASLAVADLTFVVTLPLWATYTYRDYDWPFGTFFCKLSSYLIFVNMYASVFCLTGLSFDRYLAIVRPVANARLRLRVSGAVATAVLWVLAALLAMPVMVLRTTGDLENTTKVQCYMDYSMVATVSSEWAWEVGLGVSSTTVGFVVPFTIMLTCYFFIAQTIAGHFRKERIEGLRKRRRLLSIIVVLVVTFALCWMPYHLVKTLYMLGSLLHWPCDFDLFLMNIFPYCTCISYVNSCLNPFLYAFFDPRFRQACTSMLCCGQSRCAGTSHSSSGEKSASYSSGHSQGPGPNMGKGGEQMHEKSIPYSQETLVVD
Non-standard residues stand in square brackets, D forms with d. Residues, ends and D or L forms follow the SMILES beside them. AllylGly = C=CC[C@H](N)C(=O)O; pGlu = O=C1CC[C@@H](C(=O)O)N1; Nle = CCCC[C@H](N)C(=O)O
measured-attribute: EC50 (nM)
Answer in nM, number only, no unit symbol.

A selection of reference data follows.
compound	assay-system	val
CCCC[C@H](NC(=O)[C@@H]1CCCN1C(=O)CNC(=O)[C@H](CCCCN)NC(=O)[C@H](Cc1cnc[nH]1)NC(=O)[C@H](CO)NC(=O)[C@@H]1C/C=C\C[C@H](N)C(=O)N[C@@H](CCCNC(=N)N)C(=O)N2CCC[C@H]2C(=O)N[C@@H](CCCNC(=N)N)C(=O)N1)C(=O)N1CCC[C@H]1C(=O)N[C@@H](Cc1ccccc1)C(=O)O	Apelin receptor (Homo sapiens, UniProt P35414)	23
C=CC[C@H](NC(=O)[C@H](CO)NC(=O)[C@H](CC(C)C)NC(=O)[C@H](CCCNC(=N)N)NC(=O)[C@@H]1CCCN1C(=O)[C@H](CCCNC(=N)N)NC(=O)[C@@H]1CCC(=O)N1)C(=O)N[C@@H](CCCCN)C(=O)NCC(=O)N1CCC[C@H]1C(=O)N[C@@H](CC=C)C(=O)N1CCC[C@H]1C(=O)N[C@@H](Cc1ccccc1)C(=O)O ([pGlu]RPRLS[AllylGly]KGP[AllylGly]PF-OH)	Apelin receptor (Homo sapiens, UniProt P35414)	1
C=CC[C@H](NC(=O)[C@@H]1CCCN1C(=O)[C@H](CCCC)NC(=O)[C@@H]1CCCN1C(=O)[C@H](CC=C)NC(=O)[C@H](CCCCN)NC(=O)[C@H](Cc1cnc[nH]1)NC(=O)[C@H](CO)NC(=O)[C@H](CC(C)C)NC(=O)[C@H](CCCNC(=N)N)NC(=O)[C@@H]1CCCN1C(=O)[C@H](CCCNC(=N)N)NC(=O)[C@@H]1CCC(=O)N1)C(=O)O ([pGlu]RPRLSHK[AllylGly]P[Nle]P[AllylGly]-OH)	Apelin receptor (Homo sapiens, UniProt P35414)	2

Recorded EC50 (compound `C=CC[C@H](NC(=O)[C@H](CCCNC(=N)N)NC(=O)[C@@H]1CCCN1C(=O)[C@H](CCCNC(=N)N)NC(=O)[C@@H](N)CC=C)C(=O)N[C@@H](CO)C(=O)N[C@@H](Cc1cnc[nH]1)C(=O)N[C@@H](CCCCN)C(=O)NCC(=O)N1CCC[C@H]1C(=O)N[C@@H](CCCC)C(=O)N1CCC[C@H]1C(=O)N[C@@H](Cc1ccccc1)C(=O)O` ): 0.4

###

biological target: Apelin receptor (Homo sapiens, UniProt P35414); test: Displacement of [125I]-[Nle75, Tyr77] Pyr1-apelin-13 from YFP-tagged human APJ receptor expressed in HEK293 cell membranes after 1 hr by gamma-counting method
pKi: −log10 of the molar value. Positions of bridges follow the written chain, without caps; N, C: chain ends. Non-standard residues stand in square brackets, D forms with d. Residues, ends and D or L forms follow the SMILES beside them. AllylGly = C=CC[C@H](N)C(=O)O; pGlu = O=C1CC[C@@H](C(=O)O)N1; Nle = CCCC[C@H](N)C(=O)O
Kind request: treat 8 as inclusive, so pKi at 8 or higher is y, anything lower is n.

Example entries and their recorded answers appear below.
compound	assay-system	assigned-category
CCCC[C@@H]1NC(=O)[C@@H]2CCCN2C(=O)[C@@H](NC(=O)[C@H](CCCCN)NC(=O)[C@H](Cc2cnc[nH]2)NC(=O)[C@H](CO)NC(=O)[C@H](CC(C)C)NC(=O)[C@H](CCCNC(=N)N)NC(=O)[C@@H]2CCCN2C(=O)[C@H](CCCNC(=N)N)NC(=O)[C@@H]2CCC(=O)N2)CCN(S(=O)(=O)c2ccccc2[N+](=O)[O-])C/C=C\C[C@@H](C(=O)O)NC(=O)[C@@H]2CCCN2C1=O	Apelin receptor (Homo sapiens, UniProt P35414)	y
CCCC[C@H](NC(=O)[C@@H]1CCCN1C(=O)CNC(=O)[C@@H]1C/C=C\C[C@H](NC(=O)[C@@H]2CCCN2C(=O)[C@H](CCCNC(=N)N)NC(=O)[C@@H]2CCC(=O)N2)C(=O)N[C@@H](CC(C)C)C(=O)N[C@@H](CO)C(=O)N[C@@H](Cc2cnc[nH]2)C(=O)N1)C(=O)N1CCC[C@H]1C(=O)N[C@@H](Cc1ccccc1)C(=O)O ([pGlu]RP[AllylGly]LSH[AllylGly]GP[Nle]PF-OH; staple (Z) 4-8)	Apelin receptor (Homo sapiens, UniProt P35414)	n
C=CC[C@H](NC(=O)[C@H](Cc1cnc[nH]1)NC(=O)[C@H](CO)NC(=O)[C@H](CC(C)C)NC(=O)[C@H](CCCNC(=N)N)NC(=O)[C@@H]1CCCN1C(=O)[C@H](CCCNC(=N)N)NC(=O)[C@@H]1CCC(=O)N1)C(=O)NCC(=O)N1CCC[C@H]1C(=O)N[C@@H](CCCC)C(=O)N[C@@H](CC=C)C(=O)N[C@@H](Cc1ccccc1)C(=O)O ([pGlu]RPRLSH[AllylGly]GP[Nle][AllylGly]F-OH)	Apelin receptor (Homo sapiens, UniProt P35414)	y

Is it the case that `CCCC[C@H](NC(=O)[C@@H]1CCCN1C(=O)CNC(=O)[C@H](CCCCN)NC(=O)[C@H](Cc1cnc[nH]1)NC(=O)[C@@H]1C/C=C\C[C@H](NC(=O)[C@@H]2CCC(=O)N2)C(=O)N2CCC[C@H]2C(=O)N[C@@H](CCCNC(=N)N)C(=O)N[C@@H](CC(C)C)C(=O)N1)C(=O)N1CCC[C@H]1C(=O)N[C@@H](Cc1ccccc1)C(=O)O` has pKi reaching or exceeding 8? n

Is it the case that C=CC[C@H](NC(=O)[C@H](Cc1cnc[nH]1)NC(=O)[C@H](CO)NC(=O)[C@H](CC(C)C)NC(=O)[C@H](CC=C)NC(=O)[C@@H]1CCCN1C(=O)[C@H](CCCNC(=N)N)NC(=O)[C@@H]1CCC(=O)N1)C(=O)NCC(=O)N1CCC[C@H]1C(=O)N[C@@H](CCCC)C(=O)N1CCC[C@H]1C(=O)N[C@@H](Cc1ccccc1)C(=O)O ([pGlu]RP[AllylGly]LSH[AllylGly]GP[Nle]PF-OH) has pKi reaching or exceeding 8? n

Is it the case that `C=CC[C@H](NC(=O)[C@H](CC(C)C)NC(=O)[C@H](CCCNC(=N)N)NC(=O)[C@@H]1CCCN1C(=O)[C@H](CCCNC(=N)N)N(CC=C)C(=O)[C@@H]1CCC(=O)N1)C(=O)N[C@@H](Cc1cnc[nH]1)C(=O)N[C@@H](CCCCN)C(=O)NCC(=O)N1CCC[C@H]1C(=O)N[C@@H](CCCC)C(=O)N1CCC[C@H]1C(=O)N[C@@H](Cc1ccccc1)C(=O)O` has pKi reaching or exceeding 8? y

Is it the case that C=CC[C@H](NC(=O)[C@H](Cc1ccccc1)NC(=O)[C@@H]1CCCN1C(=O)[C@H](CCCC)NC(=O)[C@H](CC=C)NC(=O)CNC(=O)[C@H](CCCCN)NC(=O)[C@H](Cc1cnc[nH]1)NC(=O)[C@H](CO)NC(=O)[C@H](CC(C)C)NC(=O)[C@H](CCCNC(=N)N)NC(=O)[C@@H]1CCCN1C(=O)[C@H](CCCNC(=N)N)NC(=O)[C@@H]1CCC(=O)N1)C(=O)O ([pGlu]RPRLSHKG[AllylGly][Nle]PF[AllylGly]-OH) has pKi reaching or exceeding 8? n

Is it the case that `C=CC[C@H](NC(=O)[C@H](CC(C)C)NC(=O)[C@H](CCCNC(=N)N)NC(=O)[C@@H]1CCCN1C(=O)[C@H](CC=C)NC(=O)[C@@H]1CCC(=O)N1)C(=O)N[C@@H](Cc1cnc[nH]1)C(=O)N[C@@H](CCCCN)C(=O)NCC(=O)N1CCC[C@H]1C(=O)N[C@@H](CCCC)C(=O)N1CCC[C@H]1C(=O)N[C@@H](Cc1ccccc1)C(=O)O` has pKi reaching or exceeding 8? n

Is it the case that `CCCC[C@@H]1NC(=O)[C@@H]2CCCN2C(=O)[C@@H](NC(=O)[C@H](CCCCN)NC(=O)[C@H](Cc2cnc[nH]2)NC(=O)[C@H](CO)NC(=O)[C@H](CC(C)C)NC(=O)[C@H](CCCNC(=N)N)NC(=O)[C@@H]2CCCN2C(=O)[C@H](CCCNC(=N)N)NC(=O)[C@@H]2CCC(=O)N2)CCNC/C=C\C[C@@H](C(=O)O)NC(=O)[C@@H]2CCCN2C1=O` has pKi reaching or exceeding 8? n

Is it the case that `C=CC[C@H](NC(=O)[C@H](CCCNC(=N)N)NC(=O)[C@@H]1CCCN1C(=O)[C@H](CCCNC(=N)N)NC(=O)[C@@H](N)CC=C)C(=O)N[C@@H](CO)C(=O)N[C@@H](Cc1cnc[nH]1)C(=O)N[C@@H](CCCCN)C(=O)NCC(=O)N1CCC[C@H]1C(=O)N[C@@H](CCCC)C(=O)N1CCC[C@H]1C(=O)N[C@@H](Cc1ccccc1)C(=O)O` has pKi reaching or exceeding 8? y
